B1: IKZF1 (parent)
chain: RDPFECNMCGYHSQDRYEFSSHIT

Variants of: B1
METHOD: protein stability index of a GFP-peptide fusion (GPS, HEK-293T) (PSI 1-6); higher = more stable;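 further: lentivirally expressed fusions sorted by FACS into six bins by GFP to DsRed ratio, PSI derived from sequencing read proportions per bin multiplied by bin number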
REPORTED_CONDITIONS: c terminus: a fixed tail appended
MEASURE_NAME: protein stability index
// response body must contain only the number

The reported protein stability index of the variant `I23V` was 2.43

The reported protein stability index of the variant `S13P` was 3

The reported protein stability index of the variant `P3F` was 1.44

The reported protein stability index of the variant `E18L` was 2.21

The reported protein stability index of the variant `H12V` was 1.75

The reported protein stability index of the variant `N7A` was 1.75

The reported protein stability index of the variant `F4R` was 3.08

The reported protein stability index of the variant `C6Q` was 2.38

The reported protein stability index of the variant `E18R` was 1.99

The reported protein stability index of the variant `Y11W` was 1.45

The reported protein stability index of the variant `T24W` was 2.71

The reported protein stability index of the variant `D2H` was 1.75

The reported protein stability index of the variant `H22A` was 2.15

The reported protein stability index of the variant `C9W` was 2.36

The reported protein stability index of the variant `R16L` was 2.12

The reported protein stability index of the variant `S20Q` was 1.94

The reported protein stability index of the variant `F19H` was 3.13

The reported protein stability index of the variant `R1S` was 2.1

The reported protein stability index of the variant `E5Q` was 2.06

The reported protein stability index of the variant `R1G` was 2.49

The reported protein stability index of the variant `D15I` was 1.56

The reported protein stability index of the variant `G10S` was 2.7
